The measured values listed here are drawn from the supplement of paper PMC10307832.

relative viability overview
test system: UMC-11; test: relative viability (nuclei count vs DMSO), 5 days (fraction); higher = more cells survive; conditions: first compound 6.325 µM

{"columns": ["compound", "tested_on", "relative viability"],
 "data": [
  ["COCC1(CO)C(=O)C2CCN1CC2 (centres undefined) [PRIMA-1MET] + Cc1cc(Nc2cc(N3CCN(C)CC3)nc(Sc3ccc(NC(=O)C4CC4)cc3)n2)n[nH]1 [Tozasertib] (partner 0.1 µM)", "UMC-11", 0.193],
  ["COCC1(CO)C(=O)C2CCN1CC2 (centres undefined) [PRIMA-1MET] + COc1cc2c(Oc3ccc(NC(=O)C4(C(=O)Nc5ccc(F)cc5)CC4)cc3F)ccnc2cc1OCCCN1CCOCC1 [Foretinib] (partner 0.25 µM)", "UMC-11", 0.979],
  ["COCC1(CO)C(=O)C2CCN1CC2 (centres undefined) [PRIMA-1MET] + CC(=O)Nc1cccc(-n2c(=O)n(C3CC3)c(=O)c3c(Nc4ccc(I)cc4F)n(C)c(=O)c(C)c32)c1 [Trametinib] (partner 0.02 µM)", "UMC-11", 0.817],
  ["COCC1(CO)C(=O)C2CCN1CC2 (centres undefined) [PRIMA-1MET] + O=C(c1cc(Cc2n[nH]c(=O)c3ccccc23)ccc1F)N1CCN(C(=O)C2CC2)CC1 [Olaparib] (partner 8 µM)", "UMC-11", 0.417]
]}

====

test system: NCI-H838; assay: relative viability (nuclei count vs DMSO), 5 days (fraction); higher = more cells survive; conditions: first compound 1 µM
relative viability overview
quantity: relative viability

{"columns": ["molecule", "quantity", "assay_value"],
 "data": [
  ["CCN(CC)CCCCNc1ncc2cc(-c3cc(OC)cc(OC)c3)c(NC(=O)NC(C)(C)C)nc2n1 + Cc1nc(Nc2ncc(C(=O)Nc3c(C)cccc3Cl)s2)cc(N2CCN(CCO)CC2)n1 [Dasatinib] (partner 0.075 µM)", "relative viability", 0.246],
  ["CCN(CC)CCCCNc1ncc2cc(-c3cc(OC)cc(OC)c3)c(NC(=O)NC(C)(C)C)nc2n1 + CS(=O)(=O)N1CCN(Cc2cc3nc(-c4cccc5[nH]ncc45)nc(N4CCOCC4)c3s2)CC1 [Pictilisib] (partner 1 µM)", "relative viability", 0.244],
  ["O=c1cc(N2CCOCC2)oc2c(-c3cccc4c3sc3ccccc34)cccc12 + CS(=O)(=O)CCNCc1ccc(-c2ccc3ncnc(Nc4ccc(OCc5cccc(F)c5)c(Cl)c4)c3c2)o1 [Lapatinib] (partner 2 µM)", "relative viability", 0.969],
  ["CCN(CC)CCCCNc1ncc2cc(-c3cc(OC)cc(OC)c3)c(NC(=O)NC(C)(C)C)nc2n1 + CCNC(=O)c1noc(-c2cc(C(C)C)c(O)cc2O)c1-c1ccc(CN2CCOCC2)cc1 [Luminespib] (partner 0.01 µM)", "relative viability", 0.3],
  ["O=c1cc(N2CCOCC2)oc2c(-c3cccc4c3sc3ccccc34)cccc12 + COc1cc2c(Oc3ccc(NC(=O)C4(C(=O)Nc5ccc(F)cc5)CC4)cc3F)ccnc2cc1OCCCN1CCOCC1 [Foretinib] (partner 0.25 µM)", "relative viability", 0.997],
  ["O=c1cc(N2CCOCC2)oc2c(-c3cccc4c3sc3ccccc34)cccc12 + NC(=O)Nc1cc(-c2cccc(F)c2)sc1C(=O)N[C@H]1CCCNC1 [AZD7762] (partner 0.2 µM)", "relative viability", 0.924],
  ["O=c1cc(N2CCOCC2)oc2c(-c3cccc4c3sc3ccccc34)cccc12 + C[C@]1(O)C[C@@H](c2nc(-c3ccc4ccc(-c5ccccc5)nc4c3)c3c(N)nccn32)C1 [Linsitinib] (partner 1 µM)", "relative viability", 0.916],
  ["CCN(CC)CCCCNc1ncc2cc(-c3cc(OC)cc(OC)c3)c(NC(=O)NC(C)(C)C)nc2n1 + CC(=O)c1c(C)c2cnc(Nc3ccc(N4CCNCC4)cn3)nc2n(C2CCCC2)c1=O [Palbociclib] (partner 0.5 µM)", "relative viability", 0.182],
  ["O=c1cc(N2CCOCC2)oc2c(-c3cccc4c3sc3ccccc34)cccc12 + CC(=O)Nc1cccc(-n2c(=O)n(C3CC3)c(=O)c3c(Nc4ccc(I)cc4F)n(C)c(=O)c(C)c32)c1 [Trametinib] (partner 0.02 µM)", "relative viability", 0.442]
]}

====

system: NCI-H1651; test: relative viability (nuclei count vs DMSO), 5 days (fraction); higher = more cells survive; conditions: first compound 8 µM

{"columns": ["compound", "tested_on", "relative viability"],
 "data": [
  ["O=c1cc(-c2cccc3c2Sc2ccccc2S3)oc(N2CCOCC2)c1 + C[C@]1(O)C[C@@H](c2nc(-c3ccc4ccc(-c5ccccc5)nc4c3)c3c(N)nccn32)C1 [Linsitinib] (partner 1 µM)", "NCI-H1651", 0.865],
  ["O=c1cc(-c2cccc3c2Sc2ccccc2S3)oc(N2CCOCC2)c1 + COc1cc2c(Oc3ccc(NC(=O)C4(C(=O)Nc5ccc(F)cc5)CC4)cc3F)ccnc2cc1OCCCN1CCOCC1 [Foretinib] (partner 0.25 µM)", "NCI-H1651", 0.979],
  ["O=c1cc(-c2cccc3c2Sc2ccccc2S3)oc(N2CCOCC2)c1 + N=C(N)NC(=N)NCCc1ccccc1 [Phenformin] (partner 250 µM)", "NCI-H1651", 0.299]
]}

====

tested on: NCI-H2023; experiment: relative viability (nuclei count vs DMSO), 5 days (fraction); higher = more cells survive; conditions: first compound 6.325 µM
relative viability overview

{"columns": ["compound", "relative viability"],
 "data": [
  ["COCC1(CO)C(=O)C2CCN1CC2 (stereo not drawn) [PRIMA-1MET] + Cc1cc(Nc2cc(N3CCN(C)CC3)nc(Sc3ccc(NC(=O)C4CC4)cc3)n2)n[nH]1 [Tozasertib] (partner 0.1 µM)", 0.359],
  ["COCC1(CO)C(=O)C2CCN1CC2 (stereo not drawn) [PRIMA-1MET] + CC(=O)Nc1cccc(-n2c(=O)n(C3CC3)c(=O)c3c(Nc4ccc(I)cc4F)n(C)c(=O)c(C)c32)c1 [Trametinib] (partner 0.02 µM)", 0.711],
  ["COCC1(CO)C(=O)C2CCN1CC2 (stereo not drawn) [PRIMA-1MET] + O=C(c1cc(Cc2n[nH]c(=O)c3ccccc23)ccc1F)N1CCN(C(=O)C2CC2)CC1 [Olaparib] (partner 8 µM)", 0.442],
  ["COCC1(CO)C(=O)C2CCN1CC2 (stereo not drawn) [PRIMA-1MET] + C[C@@H](Oc1cc(-c2cnn(C3CCNCC3)c2)cnc1N)c1c(Cl)ccc(F)c1Cl [Crizotinib] (partner 1 µM)", 0.694],
  ["COCC1(CO)C(=O)C2CCN1CC2 (stereo not drawn) [PRIMA-1MET] + O=C(CCCCCCC(=O)Nc1ccccc1)NO [Vorinostat] (partner 1 µM)", 0.734],
  ["COCC1(CO)C(=O)C2CCN1CC2 (stereo not drawn) [PRIMA-1MET] + CC(C)C[C@H](NC(=O)[C@H](Cc1ccccc1)NC(=O)c1cnccn1)B(O)O [Bortezomib] (partner 0.002 µM)", 0.951],
  ["COCC1(CO)C(=O)C2CCN1CC2 (stereo not drawn) [PRIMA-1MET] + Nc1nc2[nH]cc(CCc3ccc(C(=O)N[C@@H](CCC(=O)O)C(=O)O)cc3)c2c(=O)[nH]1 [Pemetrexed] (partner 0.2 µM)", 0.237],
  ["COCC1(CO)C(=O)C2CCN1CC2 (stereo not drawn) [PRIMA-1MET] + Nc1ncn([C@H]2C[C@H](O)[C@@H](CO)O2)c(=O)n1 [Decitabine] (partner 2 µM)", 0.216]
]}

====

system: LOU-NH91; experiment: relative viability (nuclei count vs DMSO), 5 days (fraction); higher = more cells survive; details: first compound 6.325 µM
So basically, if relative viability comes in under 0.7 it's y, and if it's 0.7 or more it's n.

{"columns": ["molecule", "group"],
 "data": [
  ["COCC1(CO)C(=O)C2CCN1CC2 (stereo not given) [PRIMA-1MET] + Nc1nc2[nH]cc(CCc3ccc(C(=O)N[C@@H](CCC(=O)O)C(=O)O)cc3)c2c(=O)[nH]1 [Pemetrexed] (partner 0.2 µM)", "y"],
  ["COCC1(CO)C(=O)C2CCN1CC2 (stereo not given) [PRIMA-1MET] + Nc1ncn([C@H]2C[C@H](O)[C@@H](CO)O2)c(=O)n1 [Decitabine] (partner 2 µM)", "n"],
  ["COCC1(CO)C(=O)C2CCN1CC2 (stereo not given) [PRIMA-1MET] + COc1cccc2cc(-c3nc([C@H]4CC[C@H](C(=O)O)CC4)n4ncnc(N)c34)[nH]c12 [OSI-027] (partner 0.5 µM)", "y"],
  ["COCC1(CO)C(=O)C2CCN1CC2 (stereo not given) [PRIMA-1MET] + CC1(C)CCC(c2ccc(Cl)cc2)=C(CN2CCN(c3ccc(C(=O)NS(=O)(=O)c4ccc(N[C@H](CCN5CCOCC5)CSc5ccccc5)c(S(=O)(=O)C(F)(F)F)c4)cc3)CC2)C1 [Navitoclax] (partner 0.5 µM)", "y"]
]}
